# condition-description: in tert-butanol, 326.65 K
measurement-type: solubility (mole fraction)

Give its solubility (mole fraction) value. Item: C[C@@H]1CC[C@@]2(OC1)O[C@H]1C[C@H]3[C@@H]4CC=C5C[C@@H](O)CC[C@]5(C)[C@H]4CC[C@]3(C)[C@H]1[C@@H]2C
0.00427

----------
# condition-description: in n-pentanol, 304.15 K
measurement-type: solubility (mole fraction)
Reply briefly: the number, and no unit.

Give its solubility (mole fraction) value. Item: C[C@@H]1CC[C@@]2(OC1)O[C@H]1C[C@H]3[C@@H]4CC=C5C[C@@H](O)CC[C@]5(C)[C@H]4CC[C@]3(C)[C@H]1[C@@H]2C
0.00663
